All values here come from patent US10196363B2.

- measured on: human RORγ (Homo sapiens, UniProt P51449)
- Construct: human RORγ, from Ser253 to Lys518; expressed in transfected cells; host or cells: CHO cells (Chinese hamster ovary), transient co-transfection with pG5-Luc
- Sequence (P51449 253-518): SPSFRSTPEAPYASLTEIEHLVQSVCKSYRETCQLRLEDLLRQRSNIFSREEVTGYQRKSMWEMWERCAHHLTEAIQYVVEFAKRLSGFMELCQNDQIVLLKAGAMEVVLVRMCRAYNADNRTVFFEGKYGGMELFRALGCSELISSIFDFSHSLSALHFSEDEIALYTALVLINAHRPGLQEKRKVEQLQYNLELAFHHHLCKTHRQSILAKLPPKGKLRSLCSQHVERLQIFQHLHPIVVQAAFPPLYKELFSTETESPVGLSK
- assay: In vitro assay of inhibitory effect against RORγ transcriptional activity (GAL4-hRORγ LBD luciferase reporter gene assay in CHO cells)
- Format: cell-based
- details: GAL4-hRORγ LBD / pG5-Luc in CHO cells, 2 days incubation
Known EC50 of a selection of molecules
Number in nM, nothing else.

[
  {
    "molecule": "CC(C)C1=CN([C@H]2CC[C@H](C(=O)O)CC2)C(=O)N[C@@]1(C)c1ccc(CCC(C)(C)C)c(Cl)c1",
    "measured on": "human RORγ (Homo sapiens, UniProt P51449)",
    "measure": "EC50",
    "test result": 16
  }
]

Prompt line: Form: Entry = CC(C)(C)CCc1ccc(C2(C)NC(=O)N([C@H]3C[C@H](CO)C3)C=C2C(C)(C)CCC(=O)O)cc1Cl (single isomer, unassigned) | System = human RORγ (Homo sapiens, UniProt P51449) | EC50 = ____
Response line: 27

Prompt line: Form: Entry = CC(C)(C)CCc1ccc([C@]2(C)NC(=O)N(CCCC(=O)O)C=C2C2CCOCC2)cc1Cl | System = human RORγ (Homo sapiens, UniProt P51449) | EC50 = ____
Response line: 13

Prompt line: Form: Entry = CC(C)C1=CN([C@H]2C[C@@H](C(=O)O)C2)C(=O)N[C@@]1(C)c1ccc(CCC(C)(C)C)c(Cl)c1 | System = human RORγ (Homo sapiens, UniProt P51449) | EC50 = ____
Response line: 17

Prompt line: Form: Entry = CC(C)C1=CN(CCCC(=O)O)C(=O)NC1(C)c1ccc(CCC(C)(C)C)cc1 (racemic) | System = human RORγ (Homo sapiens, UniProt P51449) | EC50 = ____
Response line: 364

Prompt line: Form: Entry = CC(C)C1=CN(CCC(=O)O)C(=O)N[C@@]1(C)c1cc(F)c(OCCC(C)(C)C)c(Cl)c1 | System = human RORγ (Homo sapiens, UniProt P51449) | EC50 = ____
Response line: 27

----------
- measured on: mouse RORγ (Mus musculus)
- Construct: mouse RORγ, from Ile251 to Lys516; expressed in transfected cells; host or cells: CHO cells (Chinese hamster ovary), transient co-transfection with pG5-Luc
- Sequence (P51450 251-516): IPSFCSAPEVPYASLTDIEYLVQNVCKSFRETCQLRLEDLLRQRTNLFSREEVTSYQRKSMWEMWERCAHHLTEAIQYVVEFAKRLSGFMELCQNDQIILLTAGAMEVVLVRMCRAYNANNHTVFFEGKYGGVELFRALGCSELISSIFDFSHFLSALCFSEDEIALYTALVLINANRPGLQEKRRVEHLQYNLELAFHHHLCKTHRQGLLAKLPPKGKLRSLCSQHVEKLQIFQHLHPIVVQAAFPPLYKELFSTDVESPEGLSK
- assay: In vitro assay of inhibitory effect against RORγ transcriptional activity (GAL4-mRORγ LBD luciferase reporter gene assay in CHO cells)
- Assay type: cell-based
- details: value in parentheses beside the > EC50 bound; vehicle-control 0.2% DMSO alone = 100%
measure: mRORγ luciferase activity, %-of-control

Worked examples follow.
[
  {
    "compound": "CC(C)C1=CN(CCC(=O)O)C(=O)N[C@]1(C)c1ccc(C2CCC(C)(C)CC2)c(Cl)c1",
    "test result": "(76%)"
  },
  {
    "compound": "CC(C)C1=CN(CCC(=O)O)C(=O)N[C@]1(C)c1ccc(CCC2(C)CC2)c(Cl)c1",
    "test result": "(81%)"
  },
  {
    "compound": "CC(C)C1=CN(CC(C)(C)CC(=O)O)C(=O)N[C@]1(C)c1ccc(CCC(C)(C)C)c(Cl)c1",
    "test result": "(52%)"
  },
  {
    "compound": "CC(C)(C)CCc1ccc(C2NC(=O)N(CCCC(=O)O)C=C2C(C)(C)C)cc1Cl (single isomer, unassigned)",
    "test result": "(79%)"
  },
  {
    "compound": "CC(C)C1=CN(CCC(C)(C)C(=O)O)C(=O)N[C@]1(C)c1ccc(CCC(C)(C)C)c(Cl)c1",
    "test result": "(81%)"
  },
  {
    "compound": "CC(C)C1=CN(CCC(=O)O)C(=O)N[C@]1(C)c1ccc(CCC2CC(C)(C)C2)c(Cl)c1",
    "test result": "(52%)"
  }
]

Turning to the following compound.
Prompt line: Reported mRORγ luciferase activity, %-of-control for CC(C)C1=CN([C@H]2C[C@H](C(=O)O)C2)C(=O)N[C@]1(C)c1cc(Cl)c(CCC(C)(C)C)cc1F : what is it?
Response line: (50%)
